Molecular target: BRD4 (Homo sapiens, UniProt O60885)
Assay: Differential Scanning Fluorimetry (DSF), stability of BRD4 upon ligand binding
Settings: 100 μM protein, 4 μM compound and 2% DMSO
Experimental Readout: ΔTm at 4 µM (°C)
Respond numerically; units are °C and should not be typed.

| Record Smiles | Quantity Unit | ΔTm at 4 µM |
| --- | --- | --- |
| Cc1cnc(Nc2ccc(C(=O)NC3CCN(C)CC3)c(F)c2)nc1Nc1ccc2c(c1)N(S(=O)(=O)C(C)(C)C)CCC2 | °C | 11.4 |
| Cc1cnc(Nc2ccc(CC(=O)N3CCN(C)CC3)cc2)nc1Nc1ccc(C(=O)NC2CC2)cc1 | °C | 6.8 |
| COc1cc(Nc2nc(Nc3ccc(N4CCN(C)CC4)cc3)nc3ccccc23)ccc1Cl | °C | 4.9 |

Could you now consider this next compound?
Query: Returns the measured ΔTm at 4 µM for the input compound. Input: Cc1ccc(Nc2nc(Nc3ccc(N4CCN(C)CC4)cc3)nc3ccccc23)cc1S(=O)(=O)NC(C)(C)C
Reply: 6.1

----------
Each entry below carries its reported pIC50.
Biological target: BRD4 (Homo sapiens)
Assay: Differential Scanning Fluorimetry (DSF), stability of BRD4 upon ligand binding
Conditions: estimated
Method: DSF=Differential Scanning Fluorimetry; provides a measure of the increased stability of BRD4 upon ligand binding The DSF experiment was run at 100 μM protein, 4 μM compound and 2% DMSO.
Please note pIC50 is a logarithmic value: minus log10 of concentration in mol/L. Answer with that number alone.

Consider the following illustrative entries.
| Record Smiles | Experimental Readout | Result Number |
| --- | --- | --- |
| CCc1cnc(Nc2ccc(N3CCOCC3)cc2)nc1Nc1cccc(S(=O)(=O)NC(C)(C)C)c1 | pIC50 | 4.66 |
| CCOC(=O)c1cnc(Nc2ccc(N3CCN(C)CC3)cc2)nc1Nc1cccc(NS(=O)(=O)C(C)(C)C)c1 | pIC50 | 5.80 |
| COc1cc(Nc2ncc(C(F)(F)F)c(Nc3ccc(N4CCN(C)CC4)cc3)n2)ccc1Cl | pIC50 | 4.85 |
| COc1cc(Nc2nc(Nc3ccc(N4CCN(C)CC4)cc3)ncc2Cl)cc(OC)c1OC | pIC50 | 6.40 |
| Cc1cnc(Nc2ccc(N3CCN(C)CC3)cc2)nc1Nc1cccc(NC(=O)C(C)C)c1 | pIC50 | 6.05 |

Query: Returns the measured pIC50 for the input molecule. Input: Cc1cnc(Nc2ccc(N3CCN(C)CC3)cc2)nc1Nc1ccc2c(c1)N(S(=O)(=O)C(C)(C)C)CCC2
Reply: 7.06

Query: Returns the measured pIC50 for the input molecule. Input: Cc1cnc(Nc2ccc(N3CCN(C)CC3)c(C(F)(F)F)c2)nc1Nc1cccc(NS(=O)(=O)C(C)(C)C)c1
Reply: 6.89

Query: Returns the measured pIC50 for the input molecule. Input: COc1cc(Nc2cc(C)nc(Nc3ccc(N4CCN(C)CC4)cc3)n2)ccc1Cl
Reply: 5.54

Query: Returns the measured pIC50 for the input molecule. Input: CN1CCN(c2ccc(Nc3nc4c(c(Nc5cccc(NS(=O)(=O)C(C)(C)C)c5)n3)COC4)cc2)CC1
Reply: 6.66

Query: Returns the measured pIC50 for the input molecule. Input: CN1CCN(c2ccc(Nc3nc4c(c(Nc5cccc(NS(=O)(=O)C(C)(C)C)c5)n3)CCCC4)cc2)CC1
Reply: 6.96

Query: Returns the measured pIC50 for the input molecule. Input: COc1cc(Nc2nc(Nc3ccc(N4CCN(C)CC4)cc3)ncc2C(=O)O)ccc1Cl
Reply: 4.66

Query: Returns the measured pIC50 for the input molecule. Input: CN1CCN(c2ccc(Nc3ncc(F)c(Nc4ccc(C(=O)NC5CC5)cc4)n3)cc2)CC1
Reply: 5.80

Query: Returns the measured pIC50 for the input molecule. Input: CC(C)NS(=O)(=O)c1cccc(Nc2nc(N3CCN(c4ccc(N)cc4)CC3)ncc2Br)c1
Reply: 4.72

Query: Returns the measured pIC50 for the input molecule. Input: CCc1cnc(Nc2ccc(N3CCN(C)CC3)cc2)nc1Nc1cccc(S(=O)(=O)NC(C)C)c1
Reply: 5.40

Query: Returns the measured pIC50 for the input molecule. Input: Cc1cnc(Nc2ccc(N3CCN(C)CC3)cc2)nc1Nc1cccc(C(C)(C)C)c1
Reply: 5.63

Query: Returns the measured pIC50 for the input molecule. Input: Cc1cnc(Nc2ccc(CC(=O)N3CCN(C)CC3)cc2)nc1Nc1ccc(Cl)c(NS(=O)(=O)C(C)(C)C)c1
Reply: 7.92

Query: Returns the measured pIC50 for the input molecule. Input: CN1CCN(c2ccc(Nc3ncc(F)c(Nc4ccc(Cl)c(NS(=O)(=O)C(C)(C)C)c4)n3)cc2)CC1
Reply: 7.07

Query: Returns the measured pIC50 for the input molecule. Input: COc1cc(Nc2nc(Nc3ccc(N4CCN(C)CC4)cc3)ncc2C)cc(OC)c1Cl
Reply: 7.20
